Tested on: DMS 273 small cell lung
Experiment notes: NCI tumour cell line growth inhibition, 48 h
For each record, write down the corresponding TGI.

In plain terms, `O=C(O/N=C1/CCCC/C1=C\c1ccccc1)c1ccc(Cl)cc1` has a documented TGI of > 100 µM

In plain terms, O=C1CC(c2c[nH]c3ccccc23)C(=O)N1c1ccccc1 (stereo unspecified) has a documented TGI of > 100 µM

In plain terms, `COc1c(Cl)c(Cl)c(OC)c2c1C(=O)C=CC2=O` has a documented TGI of 31.5 µM

In plain terms, `C=CCNC(=S)OCCCCCCCCCC` has a documented TGI of 37.3 µM

For each of the molecules below, state TGI.
1. CCCCCCCCCC(=O)N[C@H]1CCc2cc(OC)c(OC)c(OC)c2-c2ccc(SC)c(=O)cc21
2. CCOC(=O)CN(Cc1ccccc1)Cc1c(C(=O)c2ccccc2)c2ccccc2n1C(=O)c1ccccc1
3. CN(Cc1ccccc1)C1(N(C)Cc2ccccc2)CC1
4. Cc1nc2ccc(NCCN(C)C)c3c(=O)c4cc(O)ccc4n1c23
5. COC1(OC)c2ccccc2C2(O)c3ccccc3C(=O)C12 (stereo unspecified)
6. CCCN1C(=O)/C(=C(/O)C(=O)OCC)C(c2ccc(OC)c(OC)c2)C1=O (stereo unspecified)

1: 0.295 µM; 2: > 100 µM; 3: > 100 µM; 4: 1.76 µM; 5: > 100 µM; 6: > 100 µM

For each of the molecules below, state TGI.
1. C/C(=C/c1c(C)[nH]c(=O)[nH]c1=O)C(=O)O
2. CC1(CO)C(=O)OC12CCCCC2 (stereo unspecified)
3. COC(=O)c1ccccc1N=Cc1ccc(N(CCC#N)S(=O)(=O)c2ccccc2)cc1
4. CC(C)c1ccc(O)c(=O)cc1
5. O=C(/C=C/c1ccc(Cl)cc1)c1ccncc1
6. Oc1ccccc1C=Nc1ccccc1N=Cc1ccccc1O
7. COc1ccc(N2C(=O)C3c4[nH]c5ccccc5c4C4CCC(C(C)(C)C)CC4C3C2=O)cc1OC (stereo unspecified)
8. NC(=S)N/N=C(\C(=O)Nc1ccc(Cl)c(Cl)c1)C1=NN(c2ccccc2)C(c2cccc([N+](=O)[O-])c2)CC1=O (stereo unspecified)

1: > 1380 µM; 2: > 100 µM; 3: > 100 µM; 4: > 46.3 µM; 5: > 100 µM; 6: > 100 µM; 7: 31.2 µM; 8: 45.2 µM

For each of the molecules below, state TGI.
1. N#Cc1nc(Nc2ccc([N+](=O)[O-])cc2)sc1N
2. O=C1c2ccccc2C2(O)Oc3cccc(O)c3C12O (stereo unspecified)
3. COc1cc(C(CC(OC)OC)=C(C#N)C#N)cc(OC)c1OC

1. > 100 µM
2. > 100 µM
3. 27.6 µM

----------
System: SK-MEL-2 melanoma
Experiment notes: NCI tumour cell line growth inhibition, 48 h; in the data active = GI50 below about 0.43 µM; inactive = the rest
Can you answer with just one of these options? yes (1) (active), no (0) (inactive)

Fill in: this test's call for `Oc1ccc(-c2nc3ccc4[nH]ncc4c3c3c2CCCC3)c2cccnc12` is ___
no (0)

Further cases:
Fill in: this test's call for `CN1CCN(c2cc(Nc3cc(C4CC4)[nH]n3)nc(Nc3ccc(CC(=O)NCc4cccc(F)c4)cc3)n2)CC1` is ___
no (0)

Fill in: this test's call for `COc1ccc(Cn2cc(Cn3c(=O)c(-c4nc5ccccc5[nH]4)cc4ccccc43)nn2)c(OC)c1OC` is ___
no (0)

Fill in: this test's call for CC(C)(C)c1nnc2n(c1=O)N=CC(c1ccc(Br)cc1)S2 (centres undefined) is ___
no (0)

Fill in: this test's call for COc1ccc(/C=C/C(c2cc(OC)c(OC)c(OC)c2)n2cncn2)cc1O (centres undefined) is ___
yes (1)

Fill in: this test's call for `CC1(C)CC[C@]2(C(=O)O)CC[C@]3(C)[C@H](CC[C@@H]4[C@@]5(C)CCC(=O)C(C)(C)[C@@H]5CC[C@]43C)[C@H]2[C@H]1OC(=O)C(F)(F)F` is ___
no (0)

----------
Test system: HCT-15 colon
Experiment notes: NCI tumour cell line growth inhibition, 48 h; in the data active = GI50 below about 0.43 µM; inactive = the rest
Can you answer with just one of these options? active, inactive

Fill in: this test's call for C#CC#CC#CC#CC#CC#CC#CC#CCC1OC[C@H](COC(=O)O[C@@H](C(=O)O[C@H]2C[C@@]3(O)[C@@H](OC(=O)c4ccccc4)[C@@H]4[C@]5(OC(C)=O)CO[C@@H]5C[C@H](O)[C@@]4(C)C(=O)[C@H](OC(C)=O)C(=C2C)C3(C)C)[C@@H](NC(=O)c2ccccc2)c2ccccc2)O1 (some centres undefined) is ___
inactive

Fill in: this test's call for CCC(C)CC(CC)NCCN1CCN(C(CC)CC(C)CC)C1=S (centres undefined) is ___
inactive

Fill in: this test's call for `COc1ccc(-c2[nH]ncc2-c2cc(OC)c(OC)c(OC)c2)cc1` is ___
active

Fill in: this test's call for `Cc1[nH]nc(C(=O)Nc2n[nH]c3ccccc23)c1[N+](=O)[O-]` is ___
inactive

Fill in: this test's call for `c1ccc2c(c1)ccc1c3ccccc3ccc21` is ___
inactive

Further cases:
Fill in: this test's call for `CC(C)c1ccc(O)c(=O)cc1` is ___
inactive

Fill in: this test's call for `COc1cc2c3c(n(C)c(=O)c2cc1OC)-c1cc2c(cc1/C3=C\[C@@H](N)CCCCN)OCO2` is ___
inactive

Fill in: this test's call for `CN1CCN(c2cc(Nc3cc(C4CC4)[nH]n3)nc(Nc3ccc(CC(=O)NCc4cccc(F)c4)cc3)n2)CC1` is ___
inactive

Fill in: this test's call for `O=C1C(=O)c2c(nc3ncccn23)-c2ccccc21` is ___
active

Fill in: this test's call for COC1CCC(n2c([C@@H]3CCCC(=O)N3c3ccc(F)c(F)c3)nc3cc(-c4c(C)noc4C)ccc32)CC1 (some centres undefined) is ___
inactive

Fill in: this test's call for `COc1ccc(Cn2cc(Cn3c(=O)c(-c4nc5ccccc5[nH]4)cc4ccccc43)nn2)c(OC)c1OC` is ___
active

----------
For each record, write down the corresponding TGI.
System: MDA-N
Experiment notes: NCI tumour cell line growth inhibition, 48 h
Peptide text beside a SMILES is read from it. * marks the point of attachment. OSu = O=C1CCC(=O)N1O*; OBn = c1ccc(CO*)cc1; Bn = c1ccc(C*)cc1

In plain terms, `O=C(NNCc1ccccc1O)c1ccccc1O` has a documented TGI of > 100 µM

In plain terms, `O=C1C=C(Nc2nc(C(=O)O)cc(=O)[nH]2)c2ccccc2C1=O` has a documented TGI of > 100 µM

In plain terms, CC(C)CC(NC(=O)C(N)CCC(=O)OCc1ccccc1)C(=O)NC(COCc1ccccc1)C(=O)NC(Cc1ccccc1)C(=O)ON1C(=O)CCC1=O (centres undefined) (H-E(OBn)LS(Bn)F-OSu; configuration not given here) has a documented TGI of 47.6 µM

Now, please, on to the next molecule.
In plain terms, `C=C1C(=O)O[C@H]2[C@H]1CC(=O)/C(C)=C\CC[C@@]1(C)O[C@@H]21` has a documented TGI of 7.87 µg/mL

----------
Test system: NCI-H522 lung
Experiment notes: NCI tumour cell line growth inhibition, 48 h
Assay endpoint: GI50

In plain terms, `CCCCC#Cc1cccc(=O)o1` has a documented GI50 of 7.16 µM

For each of the molecules below, state GI50.
1. COC1CCC(n2c([C@@H]3CCCC(=O)N3c3ccc(F)c(F)c3)nc3cc(-c4c(C)noc4C)ccc32)CC1 (stereo partly specified)
2. COC(=O)c1cc2c(cc1Cl)SC(N(N(C)C)S(=O)(=O)c1ccc(Cl)cc1)=NS2(=O)=O
3. Clc1ccc(Nc2nc3ccccc3c3occc23)cc1
4. COc1ccc2sc3c(NCCCNCCO)nc4ccccc4c3c(=O)c2c1
5. C=CCNc1cccc2c1C(=O)c1ccccc1C2(O)CC=C (stereo unspecified)

2.93 µM
12.4 µM
9.83 µM
1.74 µM
18.4 µM

----------
For each record, write down the corresponding TGI.
System: K-562 leukemia
Experiment notes: NCI tumour cell line growth inhibition, 48 h

Solved cases below.
The reported K-562 leukemia TGI of `COc1cc2c3c(n(C)c(=O)c2cc1OC)-c1cc2c(cc1/C3=C\[C@@H](N)CCCCN)OCO2` is > 72.2 µM

The reported K-562 leukemia TGI of `O=C(/C=C/c1ccc(Cl)cc1)c1ccncc1` is > 100 µM

The reported K-562 leukemia TGI of `C1C[OH+]CC[OH+]CC[OH+]CC[OH+]CC[OH+]CC[OH+]1.[Cl-].[Ta+5]` is > 100 µM

The reported K-562 leukemia TGI of CC(C)(C)c1ccc(O)c(C(O)c2cccnc2)c1 (stereo not given) is > 100 µM

For each of the compounds below, state TGI.
1. Cn1cnc([N+](=O)[O-])c1Sc1nnc(C(F)(F)F)n1C
2. CCCCc1nc2cc(/C=C/C(=O)NO)ccc2n1CCN(CC)CC
3. COc1cccc(/C=N/n2c(Cc3ccc(Cl)cc3)n[nH]c2=O)c1

1. 63.6 µM
2. > 100 µM
3. > 100 µM

For each of the compounds below, state TGI.
1. Cc1nc2sccn2c1C(=O)OCCOCCOCCOCCOC(=O)c1c(C)nc2sccn12
2. COc1ccc(-c2[nH]ncc2-c2cc(OC)c(OC)c(OC)c2)cc1
3. Cc1ccc(N(C(=O)CC(=O)N2N=C(c3ccccc3)C(N=Nc3ccc([N+](=O)[O-])cc3)C2=O)C(=O)c2ccc(Cl)cc2)cc1 (stereo not given)

> 100 µM
> 34.4 µM
> 71.3 µM
